Entry source: patent US20200399343A1

SYSTEM: major histocompatibility complex (MHC) Class I
ENDPOINT_NAME: MHC Class I expression (MFI HLA A/B/C) on transduced Jurkat cells (MFI HLA A/B/C)

BINDER	NUMERIC_READOUT
US11 (protein) MPELSLTLFDEPPPLVETEPLPPLSDVSEYRVEYSEARCVLRSGGRLEALWTLRGNLSVPTPTPRVYYQTLEGYADRVPTPVEDVSESLVAKRYWLRDYRVPQRTKLVLFYFSPCHQCQTYYVECEPRCLVPWVPLWSSLEDIERLLFEDRRLMAYYALTIKSAQYTLMMVAVIQVFWGLYVKGWLHRHFPWMFSDQW	8080
US2 (protein) MNNLWKAWVGLWTSMGPLIRLPDGITKAGEDALRPWKSTAKHPWFQIEDNRCYIDNGKLFARGSIVGNMSRFVFDPKADYGGVGENLYVHADDVEFVPGESLKWNVRNLDVMPIFETLALRLVLQGDVIWLRCVPELRVDYTSSAYMWNMQYGMVRKSYTHVAWTIVFYSINITLLVLFIVYVTVDCNLSMMWMRFFVC	6080
E19 (protein) TTQKVDFKEPACNVTFAAEANECTTLIKCTTEHEKLLIRHKNKIGKYAVYAIWQPGDTTEYNVTVFQGKSHKTFMYTFPFYEMCDITMYMSKQYKLWPPQNCVENTGTFCCTAMLITVLALVCTLLYIKYKSRRSFIEEKKMP	3430
ICP47 (protein) MSWALEMADTFLDTMRVGPRTYADVRDEINKRGREDREAARTAVHDPERPLLRSPGLLPEIAPNASLGVAHRRTGGTVTDSPRNPVTR	2060
US6 (protein) ERSSRDPKTLLSLSPRQQACVPRTKSHRPVCYNDTGDCTDADDSWKQLGEDFAHQCLQAAKKRPKTHKSRPNDRNLEGRLTCQRVRRLLPCDLDIHPSHRLLTLMNNCVCDGAVWNAFRLIERHGFFAVTLYLCCGITLLVVILALLCSITYESTGRGIRR	1720
